- System: A549;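 also: growth inhibition of A549 cells, read out with a cell viability assay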
- ASSAY_DETAILS: cells
- Type: functional, cell-based
- TEST_CONDITIONS: Homo sapiens
- Description: SANGER: Inhibition of human A549 cell growth in a cell viability assay.
REPORTED_ENDPOINT: pIC50
As a rule, pIC50 stands for the negative log10 of the concentration, concentration in M.

So, CN(NC(=O)CC(=O)NN(C)C(=S)c1ccccc1)C(=S)c1ccccc1 ? Its pIC50 was 7.71

* * *

- Test system: NCI-H1355;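 also: growth inhibition of human NCI-H1355 cells, read out by a cell viability assay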
- ASSAY_DETAILS: cells
- Format: functional, cell-based, Homo sapiens
- TEST_CONDITIONS: Homo sapiens, NCI-H1355
- Description: SANGER: Inhibition of human NCI-H1355 cell growth in a cell viability assay.
REPORTED_ENDPOINT: pIC50
Please express pIC50 as -log10 of the molar concentration.

LINE_NOTATION: CC(C)C[C@H](NC(=O)[C@H](Cc1ccccc1)NC(=O)c1cnccn1)B(O)O
TESTED_ON: NCI-H1355
REPORTED_ENDPOINT: pIC50
MEASURED: 9.05
--
LINE_NOTATION: COc1cc(N2CCC(N3CCN(C)CC3)CC2)ccc1Nc1ncc(Cl)c(Nc2ccccc2S(=O)(=O)C(C)C)n1
TESTED_ON: NCI-H1355
REPORTED_ENDPOINT: pIC50
MEASURED: 6.26

Then this compound:
Readout pIC50 for Nc1ccccc1NC(=O)c1ccc(CNC(=O)OCc2cccnc2)cc1 , test system NCI-H1355, was 5.67

* * *

- Test system: SNU-475
- ASSAY_DETAILS: cells
- Type: functional, cell-based
- TEST_CONDITIONS: Homo sapiens
- Description: SANGER: Inhibition of human SNU-475 cell growth in a cell viability assay.
REPORTED_ENDPOINT: IC50

Field IC50 (system: SNU-475) for entry OC[C@H](Cc1ccccc1)Nc1nc(Oc2ccc3c(c2)CCC3)nc2c1ncn2Cc1ccc(-c2ccccc2)cc1 = > 10.2 µM

* * *

- Test system: ES1
- ASSAY_DETAILS: cells
- Format: functional, cell-based, Homo sapiens
- TEST_CONDITIONS: es1
- Description: SANGER: Inhibition of human ES1 cell growth in a cell viability assay.
pIC50: −log10 of the molar value. Where a SMILES comes first, the peptide text is derived from it. The star is where a group is joined. Cbz = O=C(OCc1ccccc1)*
REPORTED_ENDPOINT: pIC50

Case CC(C)C[C@@H](C=O)NC(=O)[C@H](CC(C)C)NC(=O)[C@H](CC(C)C)NC(=O)OCc1ccccc1 [MG-132] (Cbz-Leu-Leu-Leu-aldehyde) , ES1, pIC50 recorded as < 6.00

* * *

- System: RS4-11
- ASSAY_DETAILS: cells
- Format: functional, cell-based, Homo sapiens
- TEST_CONDITIONS: Homo sapiens, RS4-11
- Description: SANGER: Inhibition of human RS4-11 cell growth in a cell viability assay.
REPORTED_ENDPOINT: IC50

These solved cases illustrate the format of a correct answer.
LINE_NOTATION: CC1(C)CCC(c2ccc(Cl)cc2)=C(CN2CCN(c3ccc(C(=O)NS(=O)(=O)c4ccc(N[C@H](CCN5CCOCC5)CSc5ccccc5)c(S(=O)(=O)C(F)(F)F)c4)cc3)CC2)C1
REPORTED_ENDPOINT: IC50
MEASURED: 25.9 nM

LINE_NOTATION: OC[C@H](Cc1ccccc1)Nc1nc(Oc2ccc3c(c2)CCC3)nc2c1ncn2Cc1ccc(-c2ccccc2)cc1
REPORTED_ENDPOINT: IC50
MEASURED: > 10200 nM

// field: IC50; key: COc1ccc(-c2cc3nccn3c(Nc3ncccc3C(N)=O)n2)cc1OC ; value = 1230 nM

IC50 in this record for O=C1NC(=O)c2c1c(-c1ccccc1Cl)cc1[nH]c3ccc(O)cc3c21 : 898 nM

Sample NC(=O)c1ccc(N(C(N)=O)c2c(F)cccc2F)nc1-c1ccc(F)cc1F ; IC50 observed: > 2000 nM

Notebook: CN(NC(=O)CC(=O)NN(C)C(=S)c1ccccc1)C(=S)c1ccccc1 , IC50 read as > 200 nM

The reported value for NC(=O)Nc1cc(-c2cccc(F)c2)sc1C(=O)N[C@H]1CCCNC1 in terms of IC50 is 203 nM

IC50 recorded for this molecule, O=S(=O)(O)c1ccc2cc(/N=N/c3cc(S(=O)(=O)O)c4cccnc4c3O)ccc2c1 , is > 16000 nM

Entry COc1ccc(N(C(=O)Oc2c(C)cccc2C)c2ccnc(Nc3ccc(N4CCN(C)CC4)cc3)n2)c(OC)c1 , IC50 reported as > 5120 nM

* * *

- System: WM-115
- ASSAY_DETAILS: cells
- Assay type: functional, cell-based
- TEST_CONDITIONS: Homo sapiens
- Description: SANGER: Inhibition of human WM-115 cell growth in a cell viability assay.
pIC50: −log10 of the molar value.
REPORTED_ENDPOINT: pIC50

// sample CN(C)CCOc1ccc(-c2nc(-c3ccncc3)c(-c3ccc4c(c3)CC/C4=N\O)[nH]2)cc1 , its pIC50 was 6.07

For reference, reported pIC50 for Cc1ccc(-n2nc(C(C)(C)C)cc2NC(=O)Nc2ccc(OCCN3CCOCC3)c3ccccc23)cc1 stands at < 5.00

Lab note: O=C(NCCCNc1nc(Nc2cccc(NC(=O)N3CCCC3)c2)ncc1I)c1cccs1 gave pIC50 of 5.41

// pIC50 value for NC(=O)Nc1cc(-c2cccc(F)c2)sc1C(=O)N[C@H]1CCCNC1 : < 5.70

Looking up OC[C@H](Cc1ccccc1)Nc1nc(Oc2ccc3c(c2)CCC3)nc2c1ncn2Cc1ccc(-c2ccccc2)cc1 , I found its pIC50 recorded as < 4.99

Value of pIC50 reported for the compound CC1=C(/C=C/C(C)=C/C=C/C(C)=C/C(=O)O)C(C)(C)CCC1 is < 5.00

Recorded pIC50 (compound O=S(=O)(O)c1ccc2cc(/N=N/c3cc(S(=O)(=O)O)c4cccnc4c3O)ccc2c1 ): < 4.80

response.value for CN(NC(=O)CC(=O)NN(C)C(=S)c1ccccc1)C(=S)c1ccccc1 (field: pIC50) = 7.47

* * *

- Tested on: K562
- ASSAY_DETAILS: cells
- Type: functional, cell-based, Homo sapiens
- TEST_CONDITIONS: Homo sapiens, K562
- Description: SANGER: Inhibition of human K-562 cell growth in a cell viability assay.
# Lookup of reported IC50 keyed by entry

COMPOUND: COc1cc(N2CCC(N3CCN(C)CC3)CC2)ccc1Nc1ncc(Cl)c(Nc2ccccc2S(=O)(=O)C(C)C)n1 [TAE-684]
REPORTED_ENDPOINT: IC50
MEASURED: > 2000 nM

Lab note: measured IC50 of CC1(C)CCC(c2ccc(Cl)cc2)=C(CN2CCN(c3ccc(C(=O)NS(=O)(=O)c4ccc(N[C@H](CCN5CCOCC5)CSc5ccccc5)c(S(=O)(=O)C(F)(F)F)c4)cc3)CC2)C1 [NAVITOCLAX] was > 2000 nM

Sure, the documented IC50 for COc1ccc(N(C(=O)Oc2c(C)cccc2C)c2ccnc(Nc3ccc(N4CCN(C)CC4)cc3)n2)c(OC)c1 is < 20 nM

* * *

- System: TE-11
- ASSAY_DETAILS: cells
- Assay type: functional, cell-based
- TEST_CONDITIONS: Homo sapiens
- Description: SANGER: Inhibition of human TE-11 cell growth in a cell viability assay.
Form field: IC50 (one value per entry).

Reference set, count: 2
LINE_NOTATION: O=S(=O)(O)c1ccc2cc(/N=N/c3cc(S(=O)(=O)O)c4cccnc4c3O)ccc2c1
IC50: > 16 µM
//
LINE_NOTATION: COc1ccc(-c2cc3nccn3c(Nc3ncccc3C(N)=O)n2)cc1OC
IC50: > 8 µM

Query COc1ccc(N(C(=O)Oc2c(C)cccc2C)c2ccnc(Nc3ccc(N4CCN(C)CC4)cc3)n2)c(OC)c1 yields IC50 of > 5.12 µM

* * *

Let's look at some compounds and their measured pIC50.
- Test system: VM-CUB-1;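 also: cell viability assay measuring growth inhibition of the human VM-CUB-1 cell line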
- ASSAY_DETAILS: cells
- Type: functional, cell-based
- TEST_CONDITIONS: Homo sapiens
- Description: SANGER: Inhibition of human VM-CUB-1 cell growth in a cell viability assay.
Reminder that pIC50 means the negative base-10 logarithm of the concentration expressed in mol/L.

LINE_NOTATION: O=C(NCCCNc1nc(Nc2cccc(NC(=O)N3CCCC3)c2)ncc1I)c1cccs1
TESTED_ON: VM-CUB-1
MEASURED: 5.69

Now look at this one.
Here CN(NC(=O)CC(=O)NN(C)C(=S)c1ccccc1)C(=S)c1ccccc1 was tested on VM-CUB-1, and its pIC50 came to 7.90

* * *

- Tested on: CAL-12T
- ASSAY_DETAILS: cells
- Type: functional, cell-based
- TEST_CONDITIONS: Homo sapiens
- Description: SANGER: Inhibition of human CAL-12T cell growth in a cell viability assay.
REPORTED_ENDPOINT: IC50

Answered cases to consult:
COMPOUND: CC1(C)CCC(c2ccc(Cl)cc2)=C(CN2CCN(c3ccc(C(=O)NS(=O)(=O)c4ccc(N[C@H](CCN5CCOCC5)CSc5ccccc5)c(S(=O)(=O)C(F)(F)F)c4)cc3)CC2)C1 [NAVITOCLAX]
IC50: > 2000 nM

COMPOUND: CS(=O)(=O)N1CCN(Cc2cc3nc(-c4cccc5[nH]ncc45)nc(N4CCOCC4)c3s2)CC1 [PICTILISIB]
IC50: > 4000 nM

COMPOUND: OC[C@H](Cc1ccccc1)Nc1nc(Oc2ccc3c(c2)CCC3)nc2c1ncn2Cc1ccc(-c2ccccc2)cc1
IC50: 2480 nM

COMPOUND: O=S(=O)(O)c1ccc2cc(/N=N/c3cc(S(=O)(=O)O)c4cccnc4c3O)ccc2c1
IC50: > 16000 nM

Let me check: NC(=O)c1ccc(N(C(N)=O)c2c(F)cccc2F)nc1-c1ccc(F)cc1F [VX-702] , system CAL-12T, measured IC50 is > 2000 nM
